# protocolSummary: in vitro
# conditionsUsed: human, Caco-2
propertyName: efflux ratio at 2 h, 10 μM

Problem: Any idea what efflux ratio at 2 h, 10 μM was measured for Cc1c(C(=O)C2CC2)[n+]([O-])c2cc(Cl)c(Cl)cc2[n+]1[O-] ?
Result: 0.25

* * *

# protocolSummary: in vitro
# conditionsUsed: human, Caco-2
propertyName: Papp A→B at 2 h, 10 μM
Kindly format the answer as number then unit.

Problem: Any idea what Papp A→B at 2 h, 10 μM was measured for CCCCC(=O)c1c(C)[n+]([O-])c2cc(Cl)c(Cl)cc2[n+]1[O-] ?
Result: 0.66 ×10⁻⁶ cm/s

Problem: Any idea what Papp A→B at 2 h, 10 μM was measured for Cc1c(C(=O)C2CC2)[n+]([O-])c2cc(Cl)c(Cl)cc2[n+]1[O-] ?
Result: 2.3 ×10⁻⁶ cm/s

* * *

# protocolSummary: Caco-2 cell permeability
# conditionsUsed: human
propertyName: efflux ratio at 2 h, 10 μM
Answer with a bare number; do not write a unit.

Problem: Any idea what efflux ratio at 2 h, 10 μM was measured for CCCCC(=O)c1c(C)[n+]([O-])c2cc(Cl)c(Cl)cc2[n+]1[O-] [SRI54] ?
Result: 0.15

* * *

Readings of solubility kinetic at 2 h for the listed molecules
# protocolSummary: physchem
# Format: physicochemical
# conditionsUsed: 37 °C, pH 7.4, aqueous buffer, kinetic from dmso stock
Answer in µM, number only, no unit symbol.

Some molecules with recorded solubility kinetic at 2 h:
samplesmiles=Cc1c(C(=O)C2CC2)[n+]([O-])c2cc(Cl)c(Cl)cc2[n+]1[O-] unitslabel=µM valueobserved=125
samplesmiles=CCCCC(=O)c1c(C)[n+]([O-])c2cc(Cl)c(Cl)cc2[n+]1[O-] unitslabel=µM valueobserved=15.6

Problem: Any idea what solubility kinetic at 2 h was measured for CCCCC(=O)c1c(C)[n+]([O-])c2ccc([N+](=O)[O-])cc2[n+]1[O-] ?
Result: 125
